Reported values of Stability (T1/2) for individual entries
- test.target: T1, HLA-A*0201 on T2 cells (human)
- T1 construct: whole, on cells; also called HLA-A2
- assay.comment: T2 cell stability assay, flow cytometry
Numbered stars: 1 amine (or outer) side, 2 acyl side, 3 side chain; on linkers, the order of the positions; unused ones are H or OH. Square brackets hold non-standard residues; d marks the D form. Ends that are not written are not given here. O‑methyltyrosine = COc1ccc(C[C@H](N[*:1])C(=O)[*:2])cc1; Phe(4-F) = N[C@@H](Cc1ccc(F)cc1)C(=O)O; Phg = N[C@H](C(=O)O)c1ccccc1

binder	Stability (T1/2)
YASEKIFYV [SSX2 41-49 (K41Y)]	> 24 h
[Phe(4-F)]ASEKIFYV [SSX2 41-49 (K41(Phe-4F))]	> 24 h
FASEKIFYV [SSX2 41-49 (K41F)]	> 24 h
[Phg]ASEKIFYV [SSX2 41-49 (K41(Phg))]	> 24 h
[O‑methyltyrosine]ASEKIFYV [SSX2 41-49 (K41(O-methyl Tyr))]	20 h
